METHOD NOTES: Quantification of 1,8-cineole metabolites in human milk (SAFE, GC-MS, internal standard and matrix calibration) after oral intake of 100 mg 1,8-cineole
Format: in vivo
CONDITION DESCRIPTION: sample A-1a (no odour); oral 100 mg 1,8-cineole; single determination; values given with (<x) lie beyond calibration range, approximation
Below is a list of entries, each paired with its recorded Absolute concentration in human milk value.

molecule="CC12C=CC(CC1)C(C)(C)O2 (stereo not shown) [2,3-dehydro-1,8-cineole, 2,3-Dehydro-1,8-cineole]" value_reported="0.28 µg/kg"

Q: Would you mind telling me what Absolute concentration in human milk value was observed for CC12CCC(CC1=O)C(C)(C)O2 (stereo not shown) ?
Ans: 0.13 µg/kg

Q: Would you mind telling me what Absolute concentration in human milk value was observed for CC12CCC(C(=O)C1)C(C)(C)O2 (stereo not shown) ?
Ans: 0.01 µg/kg

Q: Would you mind telling me what Absolute concentration in human milk value was observed for CC1(C)OC2(C)CCC1CC2O (stereo not drawn) [a2-hydroxy-1,8-cineole, α2-hydroxy-1,8-cineole] ?
Ans: 0.65 µg/kg

====

METHOD NOTES: Quantification of 1,8-cineole metabolites in human milk (SAFE, GC-MS, internal standard and matrix calibration) after oral intake of 100 mg 1,8-cineole
Format: in vivo
CONDITION DESCRIPTION: sample B-2b (odour yes); oral 100 mg 1,8-cineole; single determination; values given with (<x) are approximations
Labelling: Absolute concentration in human milk reported below 3 µg/kg becomes yes (1); at or above becomes no (0).

Use the examples below as a reference point.
compound="CC1(C)OC2(C)CCC1C1OC12 (stereo not shown)" label_value="yes (1)"
compound="CC12CCC(CC1)C(C)(CO)O2 (stereo not shown) [9-hydroxy-1,8-cineole]" label_value="no (0)"

Q: Lab note: confirm whether the reported Absolute concentration in human milk for this compound is below 3 µg/kg, equality not counting. compound: CC12C=CC(CC1)C(C)(C)O2 (stereo not shown) [2,3-dehydro-1,8-cineole, 2,3-Dehydro-1,8-cineole]
Ans: yes (1)

Q: Lab note: confirm whether the reported Absolute concentration in human milk for this compound is below 3 µg/kg, equality not counting. compound: CC12CCC(C(=O)C1)C(C)(C)O2 (stereo not shown)
Ans: yes (1)

Q: Lab note: confirm whether the reported Absolute concentration in human milk for this compound is below 3 µg/kg, equality not counting. compound: CC1(C)OC2(C)CCC1CC2O (stereo not drawn) [a2-hydroxy-1,8-cineole, α2-hydroxy-1,8-cineole]
Ans: no (0)

Q: Lab note: confirm whether the reported Absolute concentration in human milk for this compound is below 3 µg/kg, equality not counting. compound: CC1(C)OC2(C)CCC1CC2O (stereo not drawn) [b2-hydroxy-1,8-cineole, β2-hydroxy-1,8-cineole]
Ans: no (0)

Q: Lab note: confirm whether the reported Absolute concentration in human milk for this compound is below 3 µg/kg, equality not counting. compound: CC12CCC(CC1=O)C(C)(C)O2 (stereo not shown)
Ans: yes (1)

Q: Lab note: confirm whether the reported Absolute concentration in human milk for this compound is below 3 µg/kg, equality not counting. compound: CC12CCC(C(O)C1)C(C)(C)O2 (stereo not drawn) [a3-hydroxy-1,8-cineole, α3-Hydroxy-1,8-cineole]
Ans: yes (1)

Q: Lab note: confirm whether the reported Absolute concentration in human milk for this compound is below 3 µg/kg, equality not counting. compound: CC12CCC(O)(CC1)C(C)(C)O2 [4-hydroxy-1,8-cineole]
Ans: no (0)

Q: Lab note: confirm whether the reported Absolute concentration in human milk for this compound is below 3 µg/kg, equality not counting. compound: CC1(C)OC2(CO)CCC1CC2 [7-hydroxy-1,8-cineole]
Ans: no (0)

====

METHOD NOTES: Quantification of 1,8-cineole metabolites in human milk (SAFE, GC-MS, internal standard and matrix calibration) after oral intake of 100 mg 1,8-cineole
Format: in vivo
CONDITION DESCRIPTION: sample A-1b (odour yes); oral 100 mg 1,8-cineole; single determination; values given with (<x) are approximations
METRIC: Absolute concentration in human milk (µg/kg)
State the answer as a number, implicitly in µg/kg.

See these solved cases before continuing.
molecule="CC12CCC(C(=O)C1)C(C)(C)O2 (centres unmarked)" units=µg/kg value_reported=1.80
molecule="CC12CCC(O)(CC1)C(C)(C)O2 [4-hydroxy-1,8-cineole]" units=µg/kg value_reported=5.96
molecule="CC12CCC(CC1=O)C(C)(C)O2 (centres unmarked)" units=µg/kg value_reported=0.53
molecule="CC1(C)OC2(CO)CCC1CC2 [7-hydroxy-1,8-cineole]" units=µg/kg value_reported=0.56

From here, focus on the item given below.
Q: Would you mind telling me what Absolute concentration in human milk value was observed for CC12C=CC(CC1)C(C)(C)O2 (centres unmarked) [2,3-dehydro-1,8-cineole, 2,3-Dehydro-1,8-cineole] ?
Ans: 4.07

====

METHOD NOTES: Quantification of 1,8-cineole metabolites in human milk (SAFE, GC-MS, internal standard and matrix calibration) after oral intake of 100 mg 1,8-cineole
Format: in vivo
CONDITION DESCRIPTION: sample H (odour yes); oral 100 mg 1,8-cineole; single determination; values given with (<x) are approximations
Below is a list of entries, each paired with its recorded Absolute concentration in human milk value.
Number first, unit second: that is the form wanted.

See these solved cases before continuing.
molecule="CC1(C)OC2(C)CCC1C1OC12 (stereo not shown)" metric="Absolute concentration in human milk" value_reported="6.82 µg/kg"
molecule="CC12CCC(CC1)C(C)(CO)O2 (stereo not shown) [9-hydroxy-1,8-cineole]" metric="Absolute concentration in human milk" value_reported="1.83 µg/kg"
molecule="CC12CCC(C(=O)C1)C(C)(C)O2 (stereo not shown)" metric="Absolute concentration in human milk" value_reported="3.85 µg/kg"
molecule="CC12CCC(CC1=O)C(C)(C)O2 (stereo not shown)" metric="Absolute concentration in human milk" value_reported="0.86 µg/kg"
molecule="CC1(C)OC2(CO)CCC1CC2 [7-hydroxy-1,8-cineole]" metric="Absolute concentration in human milk" value_reported="1.87 µg/kg"

From here, focus on the item given below.
Q: Would you mind telling me what Absolute concentration in human milk value was observed for CC12CCC(C(O)C1)C(C)(C)O2 (stereo not drawn) [a3-hydroxy-1,8-cineole, α3-Hydroxy-1,8-cineole] ?
Ans: 1.53 µg/kg

====

METHOD NOTES: Quantification of 1,8-cineole metabolites in human milk (SAFE, GC-MS, internal standard and matrix calibration) after oral intake of 100 mg 1,8-cineole
Assay type: in vivo
CONDITION DESCRIPTION: sample A-1b (odour yes); oral 100 mg 1,8-cineole; single determination; values given with (<x) are approximations
Below is a list of entries, each paired with its recorded Absolute concentration in human milk value.

molecule="CC12CCC(C(O)C1)C(C)(C)O2 (stereo not drawn) [a3-hydroxy-1,8-cineole, α3-Hydroxy-1,8-cineole]" metric="Absolute concentration in human milk" value_reported="0.77 µg/kg"
molecule="CC1(C)OC2(C)CCC1C1OC12 (stereo not drawn) [a2,3-epoxy-1,8-cineole, α2,3-epoxy-1,8-cineole]" metric="Absolute concentration in human milk" value_reported="2.48 µg/kg"
molecule="CC1(C)OC2(C)CCC1CC2O (stereo not drawn) [b2-hydroxy-1,8-cineole, β2-hydroxy-1,8-cineole]" metric="Absolute concentration in human milk" value_reported="6.00 µg/kg"
molecule="CC12CCC(CC1)C(C)(CO)O2 (centres unmarked) [9-hydroxy-1,8-cineole]" metric="Absolute concentration in human milk" value_reported="0.46 µg/kg"

Q: Would you mind telling me what Absolute concentration in human milk value was observed for CC1(C)OC2(C)CCC1CC2O (stereo not drawn) [a2-hydroxy-1,8-cineole, α2-hydroxy-1,8-cineole] ?
Ans: 138.10 µg/kg

====

METHOD NOTES: Quantification of 1,8-cineole metabolites in human milk (SAFE, GC-MS, internal standard and matrix calibration) after oral intake of 100 mg 1,8-cineole
Format: in vivo
CONDITION DESCRIPTION: sample E-2 (odour yes); oral 100 mg 1,8-cineole; single determination; values given with (<x) are approximations
Labelling: Absolute concentration in human milk reported below 5 µg/kg becomes 1.0; at or above becomes 0.0.

Use the examples below as a reference point.
molecule="CC12CCC(CC1=O)C(C)(C)O2 (stereo not shown) [2-oxo-1,8-cineole]" label_value=1.0
molecule="CC1(C)OC2(C)CCC1CC2O (stereo not drawn) [b2-hydroxy-1,8-cineole, β2-hydroxy-1,8-cineole]" label_value=0.0
molecule="CC1(C)OC2(C)CCC1CC2O (stereo not drawn) [a2-hydroxy-1,8-cineole, α2-hydroxy-1,8-cineole]" label_value=0.0

Q: Lab note: confirm whether the reported Absolute concentration in human milk for this molecule is below 5 µg/kg, equality not counting. molecule: CC12CCC(C(=O)C1)C(C)(C)O2 (stereo not shown) [3-oxo-1,8-cineole]
Ans: 1.0

Q: Lab note: confirm whether the reported Absolute concentration in human milk for this molecule is below 5 µg/kg, equality not counting. molecule: CC12C=CC(CC1)C(C)(C)O2 (stereo not shown) [2,3-dehydro-1,8-cineole, 2,3-Dehydro-1,8-cineole]
Ans: 0.0

Q: Lab note: confirm whether the reported Absolute concentration in human milk for this molecule is below 5 µg/kg, equality not counting. molecule: CC1(C)OC2(C)CCC1C1OC12 (stereo not drawn) [a2,3-epoxy-1,8-cineole, α2,3-epoxy-1,8-cineole]
Ans: 1.0
